B1: Steroid hormone receptor ERR2, residues 100 to 176; numbered along this chain, O95718 (parent)
chain: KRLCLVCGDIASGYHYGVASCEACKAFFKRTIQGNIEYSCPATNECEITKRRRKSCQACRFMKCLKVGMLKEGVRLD

variants of: B1; test: abundance fitness (aPCA) (normalised: wild type 0, dead -1); higher = more abundant; growth selection in yeast, the domain comes from the species named; conditions: Homo sapiens
measured-quantity: abundance fitness
// print number alone

| variant-descriptor | abundance fitness |
| --- | --- |
| V18P | -0.331 |
| C24W | -0.784 |
| E37T | -0.796 |
| F61R | -0.487 |
| I48S | -0.108 |
| C4E | -0.634 |

In plain terms, C59F has a documented abundance fitness of -0.451

Lab note: V18F gave abundance fitness of -0.428

Value of measured abundance fitness for the entry E47I : -0.476

// abundance fitness lookup, variant = R53C , result: -0.103

Query C40P yields abundance fitness of -0.684

Sure, the documented abundance fitness for A19N is 0.005

Input A58H . Output abundance fitness: -0.445

Value of abundance fitness reported for the variant G8T is -0.077

Summary for this variant, R52W : abundance fitness is -0.043

Just so you know, measured abundance fitness for Y16P came out at -0.355
